Listing of recorded MFI by entry.
- SUBJECT OF TEST: T1, Claudin 18.2 (CLDN18.2), expressed on CHOS-CLDN 18.2 / HEK293-CLDN 18.2 / HCC827-CLDN 18.2 cells (human, UniProt P56856-2 1-261)
- T1 construct: whole, on cells; The species is not repeated for the CHOS-CLDN 18.2 cells; also called claudin-18A2
- ASSAY METHOD TEXT: FACS, CHOS-CLDN18.2 cells, 10 µg/ml
I only need the number, thanks.

- BINDER: "QP14451442 (antibody, human IgG1, kappa, V domains shown, Humanized from QP192193) VH: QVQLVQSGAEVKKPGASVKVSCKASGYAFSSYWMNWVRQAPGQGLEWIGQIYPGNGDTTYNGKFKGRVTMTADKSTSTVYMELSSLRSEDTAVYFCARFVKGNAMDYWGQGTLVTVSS VL: DIVMTQSPDSLAVSLGERATISCKSSQSLLNSGNQKNYLTWYQQKPGQPPKMLIYWASTRESGVPDRFSGSGSGIDFTLTISSVQAEDVAVYYCQNAYSYPFTFGQGTKLEIKR"
  MEASURED QUANTITY: "MFI"
  MEASURED VALUE: 653000
- BINDER: "QP190191 (antibody, human IgG1, V domains shown, Chimeric; also called 36A2; mouse-derived chimeric antibody QP190191) VH: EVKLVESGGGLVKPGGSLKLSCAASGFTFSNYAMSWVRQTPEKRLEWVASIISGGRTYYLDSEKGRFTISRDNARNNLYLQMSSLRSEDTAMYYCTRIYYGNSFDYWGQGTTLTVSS VL: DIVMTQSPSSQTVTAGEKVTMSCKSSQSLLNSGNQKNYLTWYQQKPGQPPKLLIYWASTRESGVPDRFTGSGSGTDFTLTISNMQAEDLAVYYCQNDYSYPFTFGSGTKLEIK"
  MEASURED QUANTITY: "MFI"
  MEASURED VALUE: 450000

Consider now this further binder.
[Q] Could you tell me which MFI is on file for QP14371435 (antibody, human IgG1, kappa, V domains shown, Humanized from QP190191) VH: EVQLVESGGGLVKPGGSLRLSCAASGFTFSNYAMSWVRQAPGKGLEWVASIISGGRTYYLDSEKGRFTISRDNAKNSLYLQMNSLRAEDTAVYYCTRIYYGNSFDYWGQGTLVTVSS VL: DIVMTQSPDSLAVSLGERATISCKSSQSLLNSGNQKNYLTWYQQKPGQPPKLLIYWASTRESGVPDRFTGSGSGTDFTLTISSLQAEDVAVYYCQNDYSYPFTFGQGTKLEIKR ?
[A] 512000
